Tested on: ACHN renal
method: NCI tumour cell line growth inhibition, 48 h
Attribute: TGI
measure.name: TGI

[
  {
    "compound": "Cc1ccc(-c2cc(N)n(-c3nc4c(c(=O)n(C)c(=O)n4C)n3C)n2)cc1",
    "data.value": "> 100 µM"
  },
  {
    "compound": "O=C1OC2(OC2c2ccccc2)c2ccccc21 (stereo not drawn)",
    "data.value": "> 100 µM"
  },
  {
    "compound": "CC1=NN2C(=N)/C(=C/c3ccco3)C(=O)N=C2S1",
    "data.value": "> 100 µM"
  },
  {
    "compound": "O=C(OCC1OC2OC(c3ccccc3)(n3ccc4c([N+](=O)[O-])ccnc43)OC2C1OC(=O)c1ccccc1)c1ccccc1 (stereo not drawn)",
    "data.value": "> 100 µM"
  },
  {
    "compound": "CC1CCC(=O)C(C(=O)CC2CC(=O)NC(=O)C2)C1 (stereo not drawn)",
    "data.value": "> 100 µM"
  },
  {
    "compound": "CCCCCCCCCCCCCCCCCC(=O)O[C@H](COC(=O)CCCCCCCCCCC)COC(=O)CCCCCCCCCCCCCCC",
    "data.value": "> 100 µM"
  },
  {
    "compound": "CCOC(=N)CC(=O)Nc1cccc(C)c1C",
    "data.value": "> 100 µM"
  },
  {
    "compound": "C=C1C(=O)CC2C(=O)C(C)(O)CC/C=C(\\C)C(=O)CC12 (stereo not drawn)",
    "data.value": "27.3 µM"
  },
  {
    "compound": "N#C/C(=C\\n1ccc(=O)[nH]c1=S)C(N)=O",
    "data.value": "> 100 µM"
  },
  {
    "compound": "Nc1c(Cl)ncnc1N[C@@H]1C[C@H]1CO",
    "data.value": "> 100 µM"
  },
  {
    "compound": "COc1ccc(Nc2nc(NS(=O)(=O)c3cc(C)c(Cl)cc3S)n[nH]2)cc1",
    "data.value": "> 100 µM"
  },
  {
    "compound": "COc1ccc(-c2oc3cc(O)c(OC)c(O)c3c(=O)c2OC)cc1O",
    "data.value": "> 100 µM"
  },
  {
    "compound": "Cc1ccc(S(=O)(=O)NCCNc2nccc(-c3c(-c4ccc(F)cc4)nc4sccn34)n2)cc1",
    "data.value": "> 100 µM"
  },
  {
    "compound": "C[C@]12CC[C@H](O)C[C@H]1CC[C@@H]1[C@@H]2CC[C@]2(C)[C@@H](C3=CC(=O)OC3)CC[C@]12O",
    "data.value": "0.825 µM"
  },
  {
    "compound": "CCOC(=O)/C=C(\\C(=O)OCC)n1cc(C)c(=O)n(Cc2cnnn2CCCCOC(C)=O)c1=O",
    "data.value": "4.83 µM"
  },
  {
    "compound": "O=C(NCCCCCCNCc1cccc2ccccc12)Nc1cccc2ccccc12",
    "data.value": "> 100 µM"
  },
  {
    "compound": "C[n+]1cc(C(O)c2ccc3c(c2)OCO3)c2ccccc2c1 (stereo not drawn)",
    "data.value": "> 100 µM"
  },
  {
    "compound": "O=c1c2ncn(COCCCl)c2n(-c2ccccc2)c(=S)n1-c1ccccc1",
    "data.value": "> 100 µM"
  },
  {
    "compound": "O=C1CCCCC(=O)OC2(CCCCC2=O)CC1 (stereo not drawn)",
    "data.value": "> 100 µM"
  },
  {
    "compound": "CCOC(=O)c1c[nH]c2oc(/C=N/N3CC(CN4CCOCC4)OC3=O)cc2c1=O (stereo not drawn)",
    "data.value": "> 100 µM"
  },
  {
    "compound": "CCc1ccc2oc(-c3cc(O)c(-c4nc5cc(CC)ccc5o4)cc3O)nc2c1",
    "data.value": "> 100 µM"
  },
  {
    "compound": "COc1cc(CNc2ccc(SC)cc2)cc(OC)c1OC",
    "data.value": "> 100 µM"
  },
  {
    "compound": "CCOC(=O)/C1=C(\\C)N(c2ccc(C)cc2)C(=O)c2ccccc2C(=O)c2c(OC(C)=O)ccc(OC(C)=O)c21",
    "data.value": "77.2 µM"
  },
  {
    "compound": "COc1ccc(C(=O)COc2cccc(/C=C3\\Oc4ccc5ccccc5c4C3=O)c2)cc1",
    "data.value": "29 µM"
  },
  {
    "compound": "Cc1cc(C2(O)C=C(C(C)(C)C)C(=O)C(C(C)(C)C)=C2)c(C)cc1C1(O)C=C(C(C)(C)C)C(=O)C(C(C)(C)C)=C1",
    "data.value": "> 100 µM"
  },
  {
    "compound": "N#Cc1c(-c2ccccc2)nc(-c2ccccc2)sc1=S",
    "data.value": "> 100 µM"
  },
  {
    "compound": "NP(=O)(OCC1=CC(=O)c2ccccc2C1=O)N(CCBr)CCBr (stereo not drawn)",
    "data.value": "15.7 µM"
  },
  {
    "compound": "O=c1[nH]c2cc(Cl)ccc2nc1/C(=N\\O)C(O)c1ccc(Cl)cc1Cl (stereo not drawn)",
    "data.value": "> 100 µM"
  },
  {
    "compound": "Cc1ccc2c(=O)cc(-c3cccs3)[nH]c2n1",
    "data.value": "> 100 µM"
  },
  {
    "compound": "O=C(Cc1ccccc1)NN1C(=O)/C(=C\\c2cccc(O)c2)SC1=Nc1ccccc1",
    "data.value": "> 100 µM"
  },
  {
    "compound": "O=C1CC2C(=O)N(Cc3ccccc3)C1C=C2S(=O)(=O)c1ccccc1 (stereo not drawn)",
    "data.value": "> 100 µM"
  },
  {
    "compound": "CCC(C)(C)c1ccc(OCCCCCCN2CCNCC2)cc1",
    "data.value": "5.45 µM"
  },
  {
    "compound": "NCCSc1nc2ccccc2c(=O)n1-c1ccccc1",
    "data.value": "> 100 µM"
  },
  {
    "compound": "CC12CCCCC1(C)C2Sc1ccccc1 (stereo not drawn)",
    "data.value": "> 100 µM"
  },
  {
    "compound": "O=c1[nH]/c(=C/c2ccc(OCc3ccccc3)cn2)c(=O)[nH]/c1=C/c1ccc(O)cc1",
    "data.value": "> 100 µM"
  },
  {
    "compound": "COc1ccc(O)cc1",
    "data.value": "> 100 µM"
  },
  {
    "compound": "CC(=O)O[C@H](C[C@H](C(C)C)N(C)C(=O)[C@@H](NC(=O)[C@H]1CCCCN1C)C(C)C)c1nc(C(=O)N[C@@H](Cc2ccccc2)C[C@H](C)C(=O)O)c(CCOCc2ccccc2)s1",
    "data.value": "> 10 µM"
  },
  {
    "compound": "N=C(N)SCc1cccc(-c2nc3ccccc3c(=O)o2)c1",
    "data.value": "> 100 µM"
  },
  {
    "compound": "O=C(Nc1ccc(CO)cc1)c1coc2ccccc2c1=O",
    "data.value": "> 100 µM"
  },
  {
    "compound": "O=c1oc2ccccc2c(Nc2ccc3c(c2)Oc2ccccc2O3)c1[N+](=O)[O-]",
    "data.value": "32.7 µM"
  },
  {
    "compound": "Cc1cc2c(cc1Cl)SC(=Nc1ccc(Cl)cc1)N(S(=O)(=O)c1ccccc1)S2(=O)=O",
    "data.value": "10.5 µM"
  },
  {
    "compound": "COC(=O)CCC(=O)CC1CC(=O)C2CCCN12 (stereo not drawn)",
    "data.value": "> 100 µM"
  },
  {
    "compound": "C=C1C(=O)O[C@H]2[C@H]1CC/C(COC(=O)c1ccc(Cl)nc1)=C\\CC[C@@]1(C)O[C@@H]21",
    "data.value": "3.6 µM"
  }
]
